# assayedTarget: HiBit-BRG1 (Homo sapiens)
# Construct: expressed in transfected cells
# assayComment: HiBit-BRG1 cell-based degradation assay (Nano-Glo HiBiT Lytic Detection)
# conditionParameters: HeLa cells expressing HiBit-BRG1 and LgBit, 24 h; read-out: BRG1 HiBit Degradation Maximum (%)
metricName: Dmax

Request the reported Dmax associated with Nc1nnc(-c2ccccc2O)cc1OCCc1ccc(CNCCCC2CN(c3cccc4c3C(=O)N(C3CCC(=O)NC3=O)C4=O)C2)cc1 (centres unmarked)
> 50%

# iterate: Cc1ncsc1-c1ccc(CNC(=O)[C@@H]2C[C@@H](O)CN2C(=O)[C@@H](NC(=O)CCN2[C@@H]3CC[C@H]2CN(C(=O)c2ccc(CCOc4cc(-c5ccccc5O)nnc4N)cc2)C3)C(C)(C)C)cc1
< 50%

Moving on to the next compound: Nc1nnc(-c2ccccc2O)cc1OCCc1ccc(CNCCN2CCN(c3ccc4c(c3)C(=O)N(C3CCC(=O)NC3=O)C4=O)CC2)cc1 (centres unmarked)
< 50%

Input Cc1ncsc1-c1ccc([C@H](C)NC(=O)[C@@H]2C[C@@H](O)CN2C(=O)[C@@H](NC(=O)CCCCCCCCCCCCCC(=O)NCc2ccc(CCN(C)c3cc(-c4ccccc4O)nnc3N)cc2)C(C)(C)C)cc1
< 50%

Queued: Nc1nnc(-c2ccccc2O)cc1N1CCN(CCNC(=O)CCOCCOCCNc2cccc3c2C(=O)N(C2CCC(=O)NC2=O)C3=O)CC1 (centres unmarked)
< 50%

---

# assayedTarget: HiBit-BRG1 (Homo sapiens)
# Construct: expressed in transfected cells
# assayComment: HiBit-BRG1 cell-based degradation assay (Nano-Glo HiBiT Lytic Detection)
# conditionParameters: HeLa cells expressing HiBit-BRG1 and LgBit, 24 h; read-out: BRG1 HiBit Degradation Maximum (%)
metricName: Dmax

Entry Cc1ncsc1-c1ccc(CNC(=O)[C@@H]2C[C@@H](O)CN2C(=O)[C@@H](NC(=O)COCCOCCOCCOCCOCC(=O)NCc2ccc(CCOc3cc(-c4ccccc4O)nnc3N)cc2)C(C)(C)C)cc1 [Compound 168] : reported Dmax = ?
< 50%

Request: Cc1ncsc1-c1ccc([C@H](C)NC(=O)[C@@H]2C[C@@H](O)CN2C(=O)[C@@H](c2cc(OCCN3CCN(c4cc(-c5ccccc5O)nnc4N)CC3)no2)C(C)C)cc1 [Compound 217]
< 50%

Input Nc1nnc(-c2ccccc2O)cc1OCCc1ccc(CNCCOc2cccc3c2C(=O)N(C2CCC(=O)NC2=O)C3=O)cc1 (stereo not drawn) [Compound 115]
< 50%

---

# assayedTarget: HiBit-BRG1 (Homo sapiens, UniProt P51532)
# Construct: expressed in transfected cells
# Sequence (P51532 whole entry): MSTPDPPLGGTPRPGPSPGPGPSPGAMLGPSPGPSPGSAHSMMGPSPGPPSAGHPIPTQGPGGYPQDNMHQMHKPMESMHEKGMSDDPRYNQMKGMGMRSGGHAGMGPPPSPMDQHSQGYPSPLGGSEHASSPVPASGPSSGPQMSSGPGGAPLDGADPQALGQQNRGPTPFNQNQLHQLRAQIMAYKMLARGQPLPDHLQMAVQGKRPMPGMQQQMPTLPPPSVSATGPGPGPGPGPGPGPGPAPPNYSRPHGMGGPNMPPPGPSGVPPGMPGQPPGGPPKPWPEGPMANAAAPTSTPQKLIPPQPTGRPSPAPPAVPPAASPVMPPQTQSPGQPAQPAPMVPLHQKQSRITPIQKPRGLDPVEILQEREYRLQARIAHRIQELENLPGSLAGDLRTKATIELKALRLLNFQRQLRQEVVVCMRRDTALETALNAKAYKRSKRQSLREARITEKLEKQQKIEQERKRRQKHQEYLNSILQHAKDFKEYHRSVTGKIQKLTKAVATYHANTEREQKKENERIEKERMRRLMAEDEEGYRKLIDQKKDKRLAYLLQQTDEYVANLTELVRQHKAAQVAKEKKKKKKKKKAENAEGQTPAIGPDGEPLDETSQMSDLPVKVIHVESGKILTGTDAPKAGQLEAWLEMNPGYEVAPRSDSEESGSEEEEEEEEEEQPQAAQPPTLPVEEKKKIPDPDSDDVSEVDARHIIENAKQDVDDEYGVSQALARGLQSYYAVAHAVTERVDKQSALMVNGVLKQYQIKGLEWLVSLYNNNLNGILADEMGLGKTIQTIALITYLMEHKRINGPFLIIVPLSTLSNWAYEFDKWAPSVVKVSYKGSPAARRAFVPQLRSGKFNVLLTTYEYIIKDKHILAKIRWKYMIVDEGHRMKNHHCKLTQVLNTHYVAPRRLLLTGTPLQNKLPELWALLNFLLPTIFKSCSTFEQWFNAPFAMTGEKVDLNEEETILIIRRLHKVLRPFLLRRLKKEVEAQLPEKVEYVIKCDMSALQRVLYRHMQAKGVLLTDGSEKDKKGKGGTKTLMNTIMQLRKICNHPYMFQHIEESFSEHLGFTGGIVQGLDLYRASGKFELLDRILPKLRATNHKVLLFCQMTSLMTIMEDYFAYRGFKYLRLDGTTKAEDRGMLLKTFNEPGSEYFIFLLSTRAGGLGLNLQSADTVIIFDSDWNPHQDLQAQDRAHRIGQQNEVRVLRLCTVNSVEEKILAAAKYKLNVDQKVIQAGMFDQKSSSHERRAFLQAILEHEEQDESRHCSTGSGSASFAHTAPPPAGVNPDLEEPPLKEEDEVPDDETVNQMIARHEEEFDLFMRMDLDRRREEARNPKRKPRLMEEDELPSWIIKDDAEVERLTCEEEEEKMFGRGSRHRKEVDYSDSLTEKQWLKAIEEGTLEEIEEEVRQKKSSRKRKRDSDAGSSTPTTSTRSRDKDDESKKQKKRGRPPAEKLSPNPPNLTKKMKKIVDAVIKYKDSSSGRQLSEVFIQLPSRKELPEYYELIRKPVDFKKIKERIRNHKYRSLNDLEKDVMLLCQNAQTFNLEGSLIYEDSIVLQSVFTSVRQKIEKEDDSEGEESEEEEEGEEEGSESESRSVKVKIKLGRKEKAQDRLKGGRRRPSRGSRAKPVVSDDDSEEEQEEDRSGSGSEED
# assayComment: HiBit-BRG1 cell-based degradation assay (Nano-Glo HiBiT Lytic Detection)
# conditionParameters: HeLa cells expressing HiBit-BRG1 and LgBit, 24 h; read-out: BRG1 HiBit Degradation IC50
For each record, write down the corresponding DC50.

DC50 for Nc1nnc(-c2ccccc2O)cc1N1CCN(CCNC(=O)CCOCCOCCNc2ccc3c(c2)C(=O)N(C2CCC(=O)NC2=O)C3=O)CC1 (centres unmarked) [Compound 91] ?
> 1000 nM

Also Cc1ncsc1-c1ccc(CNC(=O)[C@@H]2C[C@@H](O)CN2C(=O)[C@@H](NC(=O)CCCCCCCCCCCCCCCC(=O)N(C)Cc2ccc(CCOc3cc(-c4ccccc4O)nnc3N)cc2)C(C)(C)C)cc1 [Compound 228] ?
> 100 nM

Same thing, different molecule: Cc1ncsc1-c1ccc(CNC(=O)[C@@H]2C[C@@H](O)CN2C(=O)[C@@H](NC(=O)CCN2CCC(OC3CCN(CCC(=O)NCc4ccc(CCOc5cc(-c6ccccc6O)nnc5N)cc4)CC3)CC2)C(C)(C)C)cc1 [Compound 236]
> 1000 nM

Also need Nc1nnc(-c2ccccc2O)cc1OCCc1ccc(CNC(=O)CCCCCCCCCCNc2cccc3c2C(=O)N(C2CCC(=O)NC2=O)C3=O)cc1 (centres unmarked) [Compound 72] , thanks.
> 1000 nM

Moving on to Nc1nnc(-c2ccccc2O)cc1N1CCN(CCNC(=O)CCCOc2cccc3c2C(=O)N(C2CCC(=O)NC2=O)C3=O)CC1 (centres unmarked) [Compound 84]
> 1000 nM
